# Test system: botrocetin induced platelet aggregation
# experiment_summary: Inhibition of botrocetin induced platelet aggregation (BIPA) in human PRP
# Assay type: cell-based
# conditions_used: botrocetin induced platelet aggregation, 6 minutes
# Procedure: In platelet rich plasma isolated from fresh human blood, botrocetin induces platelet aggregation via vWF. Platelet aggregate formation can be measured optically as an increase in % light transmittance on a Chronolog Model 490-4D Aggregometer because aggregation of platelets clarifies the plasma. Aptamers of the invention were analyzed for their ability to inhibit botrocetin induced platelet aggregation (“BIPA”) in human blood. […]
Oligonucleotides are written 5' to 3', each unit as a sugar letter and its base; * is a phosphorothioate linkage, no mark a phosphodiester; rarer units and linkages stand in square brackets, end groups in braces. Plain capitals give the bases only. [invdT] = inverted (3'-3') thymidine; d = 2'-deoxy (DNA); r = 2'-OH (RNA); f = 2'-fluoro
assay_readout: ≦200 nM aptamer gives >90% blocking in BIPA at 6 minutes

Past entries and their recorded results:
>  <substance>
GGACCACCCUCGCAACGAGAGUUGUGCCGCUGGUCC (rGrGrAfCfCrAfCfCfCfUfCrGfCrArAfCrGrArGrArGfUfUrGfUrGfCfCrGfCfUrGrGfUfCfC) [SEQ ID NO 174, minimized rRfY aptamer]

>  <test_result>
yes

$$$$
>  <substance>
GGCGTGCAGTGCC-[PEG]-GGCCGTGCGGTGCCTCCGTCACGCC-3T (DNA GGCGTGCAGTGCCGGCCGTGCGGTGCCTCCGTCACGCCT; chemistry not fully specified) [ARC1029, minimized DNA aptamer]

>  <test_result>
yes

$$$$
>  <substance>
GGCGTGCAGTGCCTATTCTAGGCCGTGCGGTGCCTCCGTCACGCC-3T (DNA, [invdT] at 3' end, backbone not given here) [ARC 1027, minimized DNA aptamer]

>  <test_result>
yes

$$$$
>  <substance>
GGAGCCACACGACATTGGCGCGAGAGCGCATGGCTCC (chemistry not given here) [SEQ ID NO 201, minimized rRdY aptamer]

>  <test_result>
no activity

$$$$
>  <substance>
ATGAGAGTGCTGGTGGATTGCTCAGGTCTGCTGGCTGCTTACTCTCAT (DNA, backbone not given here) [ARC845, minimized DNA aptamer]

>  <test_result>
no activity

$$$$
>  <substance>
GGAGCCACACGACATTGGCGGGCGAGAGCCACGCATGGCTCC (rGrGrArGdCdCrAdCrAdCrGrAdCrAdTdTrGrGdCrGrGrGdCrGrArGrArGdCdCrAdCrGdCrAdTrGrGdCdTdCdC) [SEQ ID NO 192, minimized rRdY aptamer]

>  <test_result>
yes

$$$$
>  <substance>
GGAGCCACGGGGTGGGTAGACGGCGGGTATGTGGCTCC (rGrGrArGdCdCrAdCrGrGrGrGdTrGrGrGdTrArGrAdCrGrGdCrGrGrGdTrAdTrGdTrGrGdCdTdCdC) [SEQ ID NO 180, minimized rRdY aptamer]

>  <test_result>
yes

$$$$

# input for lookup
### Prompt Could you tell me which ≦200 nM aptamer gives >90% blocking in BIPA at 6 minutes is on file for dGCGTGCAGTGCCT-[PEG]-AGGCCGTGCGGTGCCTCCGTCACGCC-3T (DNA GCGTGCAGTGCCTAGGCCGTGCGGTGCCTCCGTCACGCCT; chemistry not fully specified) [ARC1028, minimized DNA aptamer] ?
### Response yes
